Tested on: K98450-129-R-PDC complex spheroid growth, percent test/control;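 further: luminescence used as a proxy for viable cell amount; spheroids exposed to agents for seven days before the viability readout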
PROTOCOL_SUMMARY: Anticancer human tumor K98450-129-R-PDC patient-derived colon adenocarcinoma cell line growth inhibition [RAS]
SETUP_CONDITIONS: second compound 0.0316 µM; first compound 10 µM; active compounds read low
MEASURE: viability, T/C (%)

INSERT INTO results (compound, test_target, measure, readout_value) VALUES
  ('C[C@@H](NC(=O)c1ncnc(N)c1Cl)c1ncc(C(=O)Nc2cc(C(F)(F)F)c(Cl)cn2)s1 + C=CC(=O)N1CCN(c2nc(OCC3CCCN3C)nc3c(F)c(-c4nc(N)cc(C)c4C(F)(F)F)c(Cl)cc23)C(C)C1', 'K98450-129-R-PDC complex spheroid growth, percent test/control', 'viability, T/C', 65.1),
  ('CC(Nc1ccc2c(c1)OCCn1cc(N3C(=O)OCC3C(F)F)nc1-2)C(N)=O (stereo not drawn) + C=CC(=O)N1CCN(c2nc(OCC3CCCN3C)nc3c(F)c(-c4nc(N)cc(C)c4C(F)(F)F)c(Cl)cc23)C(C)C1', 'K98450-129-R-PDC complex spheroid growth, percent test/control', 'viability, T/C', 46.9),
  ('C[C@@H](NC(=O)c1ncnc(N)c1Cl)c1ncc(C(=O)Nc2cc(C(F)(F)F)c(Cl)cn2)s1 + C#Cc1c(F)ccc2cc(O)cc(-c3ncc4c(N5CC6CCC(C5)N6)nc(OCC56CCCN5CC(F)C6)nc4c3F)c12', 'K98450-129-R-PDC complex spheroid growth, percent test/control', 'viability, T/C', 103);

The reported measurements were obtained from PubChem BioAssay AID2060891.
